system-tested: α-synuclein fibrils (Homo sapiens, UniProt P37840)
Construct: made in house; host or cells: E. coli BL21(DE3)RIL
assay-info: ThT competitive assay for α-synuclein fibrils (Table 1)
Type: binding
study-conditions: individual determinations; read-out: Ki (nM) α-syn
readout-kind: Ki (nM)
Answers are plain numbers, in nM.

Could you report Ki for every entry in the following list?
1. COc1ccc2nc(/C=C/c3cnccn3)ccc2c1 [TZ-23-12]
2. COc1ccc2c(c1)NC(=O)/C(=C/C=C/c1ccc([N+](=O)[O-])cc1)S2 [TZ-19-124]
3. COc1ccc(/C=C/c2cccnn2)cc1 [TZ-22-23-1]

A)
1. 36.4
2. 254
3. 1140

Could you report Ki for every entry in the following list?
1. COCOc1ccc2nc(/C=C/c3ccnc(OC)c3)ccc2c1 [TZ-36-144]
2. COc1ccc2nc(/C=C/c3ccsc3)ccc2c1 [TZ-36-30]
3. COc1ccc(C2CCN(C(=O)COC(=O)c3ccc(C(C)(C)C)cc3)CC2)cc1 [TZ-20-23]

A)
1. 42
2. 122
3. 109
